B1: TPR t1 (parent)
chain: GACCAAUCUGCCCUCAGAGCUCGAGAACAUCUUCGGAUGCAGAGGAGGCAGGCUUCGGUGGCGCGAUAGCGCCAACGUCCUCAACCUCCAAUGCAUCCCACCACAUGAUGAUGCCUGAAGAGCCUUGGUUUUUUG

Variants of: B1
Experiment: polymerase ribozyme fitness, log enrichment relative to wild type (log ratio); higher = more active; in vitro selection for triplet polymerase activity
Quick rule: polymerase ribozyme fitness (log ratio) of at least -0.9 means met, below that means not met.

Ask: Quick check: does C49U G57U G61A G120A have polymerase ribozyme fitness (log ratio) greater than or equal to -0.9?
Reply: met

Ask: # iterate: G17C G63A G77U U81A A119G A121C
Reply: not met

Ask: # iterate: U81G U125A U131G
Reply: not met

Ask: # iterate: C12G C28G A37U G110U
Reply: met

Ask: # iterate: C70A C86A U87G
Reply: not met

Ask: # iterate: G10U U59C U96G G117A
Reply: not met

Ask: # iterate: A6U U9C G47A G69A
Reply: not met

Ask: # iterate: G23C G58A G61A C94G A111C
Reply: not met

Ask: # iterate: C8U A50G C72G
Reply: met

Ask: # iterate: G10A G93A
Reply: met

Ask: # iterate: G10A U130C
Reply: met

Ask: # iterate: C94U U112A C124G
Reply: met

Ask: # iterate: C12G U78A G93A C124G
Reply: met

Ask: # iterate: A6C G47A
Reply: met

Ask: # iterate: A29G C72A
Reply: not met

Ask: # iterate: C73U C76A A103U G120C
Reply: not met

Ask: # iterate: C34A G113C
Reply: not met

Ask: # iterate: U9G C94A U125G
Reply: not met

Ask: # iterate: A95G C97U A105U G122U
Reply: not met

Ask: # iterate: C89G U106A
Reply: not met

Ask: # iterate: C13U A50G C85G C123G
Reply: met

Ask: # iterate: A37U G42C
Reply: not met

Ask: # iterate: C20G U125G
Reply: not met

Ask: # iterate: C20G C123G U132G
Reply: not met

Ask: # iterate: C13U A105U C115A A121U
Reply: met

Ask: # iterate: G122A C123U
Reply: met

Ask: # iterate: G17C A41U G51U C64U C104U G120A
Reply: not met

Ask: # iterate: G69C U81G
Reply: not met

Ask: # iterate: G44A A119G C123A
Reply: met

Ask: # iterate: C64U U78C
Reply: met

Ask: # iterate: G23A C56U G110C
Reply: not met

Ask: # iterate: U109G G113A G127C
Reply: not met

Ask: # iterate: G44A G48U C53A G60U
Reply: not met

Ask: # iterate: A6G C8A U125A
Reply: met

Ask: # iterate: G69A U81A
Reply: not met

Ask: # iterate: G36U A118G G128A
Reply: not met

Ask: # iterate: A90C U106A
Reply: not met

Ask: # iterate: A41U G110C
Reply: not met

Ask: # iterate: G61A A74C
Reply: not met

Ask: # iterate: A2C G63A
Reply: not met

Ask: # iterate: A6U G23A G69C C115A U126A U131G
Reply: not met

Ask: # iterate: C89A A100U C115G
Reply: not met

Ask: # iterate: G17A C20U
Reply: not met

Ask: # iterate: G63A C98U
Reply: not met
